Biological target: Norovirus GII.2 (Snow Mountain virus) VLP, capsid protein VP1 (Snow Mountain virus (Norovirus GII.2), UniProt Q80RD6 Q80RD6:1-542)
Assay: ELONA; ELASA, RT, 3 ug/ml VLP; T/N 18.1 at 1 uM (Table 5)
Settings: chain copies: 180, label: 5' biotin
measured_metric: Kd

Given the binder SMV-21 (ssDNA) DNA: AGTATACGTATTACCTGCAGCCCATGTTTTGTAGGTGTAATAGGTCATGTTAGGGTTTCTGCGATATCTCGGAGATCTTGC , what is its reported Kd? ~101 nM

Reference source for all entries: patent US20170114420
